Molecular target: hGPR65 (Homo sapiens)
Construct: expressed in transfected cells; host or cells: HeLa (ATCC CCL-2), lentiviral transduction, pLX317
Sequence (Q8IYL9 whole entry): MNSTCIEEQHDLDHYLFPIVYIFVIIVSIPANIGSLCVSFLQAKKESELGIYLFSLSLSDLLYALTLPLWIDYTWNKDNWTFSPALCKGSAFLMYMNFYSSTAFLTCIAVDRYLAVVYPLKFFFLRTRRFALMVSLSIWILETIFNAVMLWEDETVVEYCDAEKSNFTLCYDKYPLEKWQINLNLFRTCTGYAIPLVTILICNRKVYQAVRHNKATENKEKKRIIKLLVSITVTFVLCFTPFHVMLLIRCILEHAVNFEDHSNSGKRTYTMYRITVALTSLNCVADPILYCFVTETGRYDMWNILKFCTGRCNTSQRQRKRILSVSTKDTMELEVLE
Experiment: cAMP detection in HeLa expression cell line, hGPR65
Assay type: cell-based
Details: HeLa, 1st hGPR column pair; relative to 100uM forskolin (100%) and DMSO (0%); NA = no activity; read-out: hGPR Max Activity %
PROPERTY_LABEL: Emax (%)
Answer format: numeric, % implied, no suffix.

Challenge: Would you mind telling me what Emax value was observed for COCc1ccc(-c2cc(O)n3ncc(C(=O)Nc4ccc(F)cc4)c3n2)cc1 ?
Response given: 43.3

Challenge: Subsequent entry: Cc1ccc(NC(=O)c2cnn3c(O)cc(-c4ccc(N5CCN(C)CC5)c(Cl)c4)nc23)cc1
Response given: 53.1

Challenge: Ok, now COCc1ccc(-c2cc(O)n3nccc3n2)cc1
Response given: 11.7

Challenge: Query Cc1ccc(NC(=O)c2cnn3c(O)cc(-c4ccc(C(=O)NC(C)C)cc4)nc23)cc1 next
Response given: 46.6

Challenge: // next record Cc1ccc(NC(=O)c2cnn3c(O)cc(-c4ccc(N5CCN(C)CC5)cc4)nc23)cc1
Response given: 48.2
